# Tested on: Clostridium bolteae
# assay-text: Antibacterial activity against Clostridium bolteae by CLSI M11-A6 agar dilution method
# Assay type: functional
# condition-summary: Enterocloster bolteae
endpoint-label: MIC90

Hi! What's the reported MIC90 for `Cc1ncc([N+](=O)[O-])n1CCO` on Clostridium bolteae? 0.25 µg/mL

---

# Tested on: Anaerococcus prevotii
# assay-text: Antibacterial activity against Anaerococcus prevotii by CLSI M11-A6 agar dilution method
# Assay type: functional
endpoint-label: MIC90 (µg/mL)
Express it in µg/mL; write the number only.

Recorded MIC90 for `CCCCCCCCCC(=O)N[C@@H](Cc1c[nH]c2ccccc12)C(=O)N[C@H](CC(N)=O)C(=O)N[C@@H](CC(=O)O)C(=O)N[C@@H]1C(=O)NCC(=O)N[C@@H](CCCN)C(=O)N[C@@H](CC(=O)O)C(=O)N[C@H](C)C(=O)N[C@@H](CC(=O)O)C(=O)NCC(=O)N[C@H](CO)C(=O)N[C@@H]([C@H](C)CC(=O)O)C(=O)N[C@@H](CC(=O)c2ccccc2N)C(=O)O[C@@H]1C` , please? 4

Recorded MIC90 for `Cc1ncc([N+](=O)[O-])n1CCO` , please? 2

Recorded MIC90 for `CC(=O)NC[C@H]1CN(c2ccc(N3CCOCC3)c(F)c2)C(=O)O1` , please? 2

Recorded MIC90 for `CN[C@H](CC(C)C)C(=O)N[C@H]1C(=O)N[C@@H](CC(N)=O)C(=O)N[C@H]2C(=O)N[C@H]3C(=O)N[C@H](C(=O)N[C@H](C(=O)O)c4cc(O)cc(O)c4-c4cc3ccc4O)[C@H](O)c3ccc(c(Cl)c3)Oc3cc2cc(c3O[C@@H]2O[C@H](CO)[C@@H](O)[C@H](O)[C@H]2O[C@H]2C[C@](C)(N)[C@H](O)[C@H](C)O2)Oc2ccc(cc2Cl)[C@H]1O` , please? 1

Recorded MIC90 for `CCCCCCCCCCNCCN[C@@]1(C)C[C@H](O[C@H]2[C@H](Oc3c4cc5cc3Oc3ccc(cc3Cl)[C@@H](O)[C@@H](NC(=O)[C@@H](CC(C)C)NC)C(=O)N[C@@H](CC(N)=O)C(=O)N[C@H]5C(=O)N[C@H]3C(=O)N[C@H](C(=O)N[C@H](C(=O)O)c5cc(O)c(CNCP(=O)(O)O)c(O)c5-c5cc3ccc5O)[C@H](O)c3ccc(c(Cl)c3)O4)O[C@H](CO)[C@@H](O)[C@@H]2O)O[C@@H](C)[C@H]1O` , please? 0.25

---

# System: Bifidobacterium longum
# assay-text: Antibacterial activity against Bifidobacterium longum by CLSI M11-A6 agar dilution method
# Assay type: functional
Provide the reported MIC90 of each item.
Express it in µg/mL; write the number only.

Recorded MIC90 for `CN[C@H](CC(C)C)C(=O)N[C@H]1C(=O)N[C@@H](CC(N)=O)C(=O)N[C@H]2C(=O)N[C@H]3C(=O)N[C@H](C(=O)N[C@H](C(=O)O)c4cc(O)cc(O)c4-c4cc3ccc4O)[C@H](O)c3ccc(c(Cl)c3)Oc3cc2cc(c3O[C@@H]2O[C@H](CO)[C@@H](O)[C@H](O)[C@H]2O[C@H]2C[C@](C)(N)[C@H](O)[C@H](C)O2)Oc2ccc(cc2Cl)[C@H]1O` , please? 4

Recorded MIC90 for `CCC[C@@H]1C[C@@H](C(=O)N[C@@H]([C@H]2O[C@H](SC)[C@H](O)[C@@H](O)[C@H]2O)[C@H](C)Cl)N(C)C1` , please? 1

Recorded MIC90 for `CC(=O)NC[C@H]1CN(c2ccc(N3CCOCC3)c(F)c2)C(=O)O1` , please? 8

Recorded MIC90 for `CCCCCCCCCCNCCN[C@@]1(C)C[C@H](O[C@H]2[C@H](Oc3c4cc5cc3Oc3ccc(cc3Cl)[C@@H](O)[C@@H](NC(=O)[C@@H](CC(C)C)NC)C(=O)N[C@@H](CC(N)=O)C(=O)N[C@H]5C(=O)N[C@H]3C(=O)N[C@H](C(=O)N[C@H](C(=O)O)c5cc(O)c(CNCP(=O)(O)O)c(O)c5-c5cc3ccc5O)[C@H](O)c3ccc(c(Cl)c3)O4)O[C@H](CO)[C@@H](O)[C@@H]2O)O[C@@H](C)[C@H]1O` , please? 0.5

---

# Test system: Bifidobacterium bifidum
# assay-text: Antibacterial activity against Bifidobacterium bifidum by CLSI M11-A6 agar dilution method
# Format: functional
Provide the reported MIC90 of each item.
Express it in µg/mL; write the number only.

Recorded MIC90 for `Cc1ncc([N+](=O)[O-])n1CCO` , please? 128

Recorded MIC90 for `CCCCCCCCCC(=O)N[C@@H](Cc1c[nH]c2ccccc12)C(=O)N[C@H](CC(N)=O)C(=O)N[C@@H](CC(=O)O)C(=O)N[C@@H]1C(=O)NCC(=O)N[C@@H](CCCN)C(=O)N[C@@H](CC(=O)O)C(=O)N[C@H](C)C(=O)N[C@@H](CC(=O)O)C(=O)NCC(=O)N[C@H](CO)C(=O)N[C@@H]([C@H](C)CC(=O)O)C(=O)N[C@@H](CC(=O)c2ccccc2N)C(=O)O[C@@H]1C` , please? 32

Recorded MIC90 for `CN[C@H](CC(C)C)C(=O)N[C@H]1C(=O)N[C@@H](CC(N)=O)C(=O)N[C@H]2C(=O)N[C@H]3C(=O)N[C@H](C(=O)N[C@H](C(=O)O)c4cc(O)cc(O)c4-c4cc3ccc4O)[C@H](O)c3ccc(c(Cl)c3)Oc3cc2cc(c3O[C@@H]2O[C@H](CO)[C@@H](O)[C@H](O)[C@H]2O[C@H]2C[C@](C)(N)[C@H](O)[C@H](C)O2)Oc2ccc(cc2Cl)[C@H]1O` , please? 4

Recorded MIC90 for `CCC[C@@H]1C[C@@H](C(=O)N[C@@H]([C@H]2O[C@H](SC)[C@H](O)[C@@H](O)[C@H]2O)[C@H](C)Cl)N(C)C1` , please? 1

Recorded MIC90 for `CC(=O)NC[C@H]1CN(c2ccc(N3CCOCC3)c(F)c2)C(=O)O1` , please? 8

Recorded MIC90 for `CCCCCCCCCCNCCN[C@@]1(C)C[C@H](O[C@H]2[C@H](Oc3c4cc5cc3Oc3ccc(cc3Cl)[C@@H](O)[C@@H](NC(=O)[C@@H](CC(C)C)NC)C(=O)N[C@@H](CC(N)=O)C(=O)N[C@H]5C(=O)N[C@H]3C(=O)N[C@H](C(=O)N[C@H](C(=O)O)c5cc(O)c(CNCP(=O)(O)O)c(O)c5-c5cc3ccc5O)[C@H](O)c3ccc(c(Cl)c3)O4)O[C@H](CO)[C@@H](O)[C@@H]2O)O[C@@H](C)[C@H]1O` , please? 0.5

---

# Test system: Clostridium sp.
# assay-text: Antibacterial activity against Clostridium sp. by CLSI M11-A6 agar dilution method
# Format: functional
endpoint-label: MIC90 (µg/mL)
Express it in µg/mL; write the number only.

Recorded MIC90 for `CC(=O)NC[C@H]1CN(c2ccc(N3CCOCC3)c(F)c2)C(=O)O1` , please? 4

---

# Test system: Clostridium sp.
# assay-text: Antibacterial activity against Clostridium sp. by CLSI M11-A6 agar dilution method
# Assay type: functional
endpoint-label: MIC90

Recorded MIC90 for `Cc1ncc([N+](=O)[O-])n1CCO` , please? 1 µg/mL

Recorded MIC90 for `CCCCCCCCCCNCCN[C@@]1(C)C[C@H](O[C@H]2[C@H](Oc3c4cc5cc3Oc3ccc(cc3Cl)[C@@H](O)[C@@H](NC(=O)[C@@H](CC(C)C)NC)C(=O)N[C@@H](CC(N)=O)C(=O)N[C@H]5C(=O)N[C@H]3C(=O)N[C@H](C(=O)N[C@H](C(=O)O)c5cc(O)c(CNCP(=O)(O)O)c(O)c5-c5cc3ccc5O)[C@H](O)c3ccc(c(Cl)c3)O4)O[C@H](CO)[C@@H](O)[C@@H]2O)O[C@@H](C)[C@H]1O` , please? 0.25 µg/mL

Recorded MIC90 for `CN[C@H](CC(C)C)C(=O)N[C@H]1C(=O)N[C@@H](CC(N)=O)C(=O)N[C@H]2C(=O)N[C@H]3C(=O)N[C@H](C(=O)N[C@H](C(=O)O)c4cc(O)cc(O)c4-c4cc3ccc4O)[C@H](O)c3ccc(c(Cl)c3)Oc3cc2cc(c3O[C@@H]2O[C@H](CO)[C@@H](O)[C@H](O)[C@H]2O[C@H]2C[C@](C)(N)[C@H](O)[C@H](C)O2)Oc2ccc(cc2Cl)[C@H]1O` , please? 4 µg/mL

Recorded MIC90 for `CCCCCCCCCC(=O)N[C@@H](Cc1c[nH]c2ccccc12)C(=O)N[C@H](CC(N)=O)C(=O)N[C@@H](CC(=O)O)C(=O)N[C@@H]1C(=O)NCC(=O)N[C@@H](CCCN)C(=O)N[C@@H](CC(=O)O)C(=O)N[C@H](C)C(=O)N[C@@H](CC(=O)O)C(=O)NCC(=O)N[C@H](CO)C(=O)N[C@@H]([C@H](C)CC(=O)O)C(=O)N[C@@H](CC(=O)c2ccccc2N)C(=O)O[C@@H]1C` , please? 8 µg/mL

Recorded MIC90 for `CCC[C@@H]1C[C@@H](C(=O)N[C@@H]([C@H]2O[C@H](SC)[C@H](O)[C@@H](O)[C@H]2O)[C@H](C)Cl)N(C)C1` , please? 4 µg/mL
